What Kd was measured for each of the following?
# subjectOfTest: T1, EsCas13d, nuclease-dead (Eubacterium siraeum, UniProt B0MS50, R295A;H300A;R849A;H854A)
# T1 sequence: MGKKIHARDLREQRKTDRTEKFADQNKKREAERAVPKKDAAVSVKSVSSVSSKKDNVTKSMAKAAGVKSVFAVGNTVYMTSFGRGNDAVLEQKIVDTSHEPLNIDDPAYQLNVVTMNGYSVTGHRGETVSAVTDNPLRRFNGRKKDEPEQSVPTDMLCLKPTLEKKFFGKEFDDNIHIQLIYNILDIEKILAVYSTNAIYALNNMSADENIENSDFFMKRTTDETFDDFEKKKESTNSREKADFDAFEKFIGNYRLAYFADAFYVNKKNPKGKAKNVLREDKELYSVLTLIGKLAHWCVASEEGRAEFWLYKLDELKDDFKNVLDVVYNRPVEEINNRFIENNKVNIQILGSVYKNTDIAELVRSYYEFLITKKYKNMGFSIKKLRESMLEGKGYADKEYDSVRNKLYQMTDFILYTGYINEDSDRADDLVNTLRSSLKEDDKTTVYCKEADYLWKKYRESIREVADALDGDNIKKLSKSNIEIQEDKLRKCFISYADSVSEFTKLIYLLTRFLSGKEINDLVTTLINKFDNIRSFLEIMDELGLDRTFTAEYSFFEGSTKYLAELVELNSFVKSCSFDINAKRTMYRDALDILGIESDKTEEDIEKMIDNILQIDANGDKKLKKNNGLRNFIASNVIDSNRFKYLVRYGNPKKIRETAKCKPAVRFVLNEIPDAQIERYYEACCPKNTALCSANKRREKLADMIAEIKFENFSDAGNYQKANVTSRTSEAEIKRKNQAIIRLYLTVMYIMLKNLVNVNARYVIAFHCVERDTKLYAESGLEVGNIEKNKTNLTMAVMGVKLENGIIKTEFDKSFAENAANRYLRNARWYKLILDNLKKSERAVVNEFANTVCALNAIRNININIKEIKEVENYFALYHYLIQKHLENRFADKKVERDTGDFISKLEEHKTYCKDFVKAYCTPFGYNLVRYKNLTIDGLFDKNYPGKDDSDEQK
# assay: crRNA (strand 1, pre-loaded); Mg2+; 40 mM Tris-HCl pH 7.5, 150 mM NaCl, 6 mM MgCl2, 1 mM DTT, 0.1% Tween-20, 0.2 mg/ml BSA; 25 C; 10 min per concentration, then washed
# testContext: tags: His6-TwinStrep-SUMO cleaved; N-terminal SNAP kept (SNAP-Surface 488); label: 3' end held by stalled T7 RNA polymerase
Write the value in nM as a bare number.

Need Kd, item target 2 MT 5'PFS GAG 3'PFS UGU (mixed) RNA 1: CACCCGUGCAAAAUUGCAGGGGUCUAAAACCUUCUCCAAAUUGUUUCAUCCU RNA 2: GGGAAUGGAUCCACAUCUACGAAUUCGAGAGGAUGAAACAAUUUGGAGAAGUGUAGAUCGGAAGAGCACACGU
13.5

Kd lookup needed for target 1 C4G,C21A (mixed) RNA 1: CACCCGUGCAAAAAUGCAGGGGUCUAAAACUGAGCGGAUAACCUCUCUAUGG RNA 2: GGGAAUGGAUCCACAUCUACGAAUUCGUACAAUAGAGAGGUUAUCCGGUCACCGAGAUCGGAAGAGCACACGU , thanks.
25.5

// query Kd value for entry target 3 C1U,C6A (mixed) RNA 1: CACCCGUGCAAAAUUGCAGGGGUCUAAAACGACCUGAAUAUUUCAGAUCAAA RNA 2: GGGAAUGGAUCCACAUCUACGAAUUCGUUUUUGAUCUGAAAUAUUAAGGUUUGCAGAUCGGAAGAGCACACGU
59

// Kd lookup, key: target 2 MT 5'PFS AAU 3'PFS AUA (mixed) RNA 1: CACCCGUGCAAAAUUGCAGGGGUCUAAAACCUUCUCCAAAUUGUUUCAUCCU RNA 2: GGGAAUGGAUCCACAUCUACGAAUUCAAUAGGAUGAAACAAUUUGGAGAAGAUAAGAUCGGAAGAGCACACGU
4.5

Would you kindly share the measured Kd for target 2 MT 5'PFS AGA 3'PFS CAG (mixed) RNA 1: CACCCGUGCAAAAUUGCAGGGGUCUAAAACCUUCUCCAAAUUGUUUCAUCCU RNA 2: GGGAAUGGAUCCACAUCUACGAAUUCAGAAGGAUGAAACAAUUUGGAGAAGCAGAGAUCGGAAGAGCACACGU ?
5.7

Can you look up the measured Kd of target 1 insC 3' of 15,insU 3' of 9 (mixed) RNA 1: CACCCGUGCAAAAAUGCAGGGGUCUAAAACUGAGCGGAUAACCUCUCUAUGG RNA 2: GGGAAUGGAUCCACAUCUACGAAUUCGUACCAUAGAGCAGGUUAUUCCGCUCACCGAGAUCGGAAGAGCACACGU for me?
14.4

Given target 2 MT 5'PFS CUC 3'PFS UGC (mixed) RNA 1: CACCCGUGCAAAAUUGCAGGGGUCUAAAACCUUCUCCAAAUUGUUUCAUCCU RNA 2: GGGAAUGGAUCCACAUCUACGAAUUCCUCAGGAUGAAACAAUUUGGAGAAGUGCAGAUCGGAAGAGCACACGU , state its recorded Kd.
1.98

Given target 1 insA 3' of 21,insU 3' of 15 (mixed) RNA 1: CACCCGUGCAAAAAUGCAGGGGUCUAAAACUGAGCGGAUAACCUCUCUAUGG RNA 2: GGGAAUGGAUCCACAUCUACGAAUUCGUACCAAUAGAGUAGGUUAUCCGCUCACCGAGAUCGGAAGAGCACACGU , state its recorded Kd.
31.6

Please give the measured Kd for this binder: target 2 MT 5'PFS CUC 3'PFS UGA (mixed) RNA 1: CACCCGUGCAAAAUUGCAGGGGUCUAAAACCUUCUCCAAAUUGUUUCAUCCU RNA 2: GGGAAUGGAUCCACAUCUACGAAUUCCUCAGGAUGAAACAAUUUGGAGAAGUGAAGAUCGGAAGAGCACACGU
1.66

Consider the binder target 1 C7G,C22G (mixed) RNA 1: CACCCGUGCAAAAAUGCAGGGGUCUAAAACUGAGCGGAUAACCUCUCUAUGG RNA 2: GGGAAUGGAUCCACAUCUACGAAUUCGUAGCAUAGAGAGGUUAUGCGCUCACCGAGAUCGGAAGAGCACACGU and give its measured Kd.
38

Please report the recorded Kd for target 2 MT 5'PFS ACU 3'PFS AUU (mixed) RNA 1: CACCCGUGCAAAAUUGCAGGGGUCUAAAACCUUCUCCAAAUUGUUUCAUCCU RNA 2: GGGAAUGGAUCCACAUCUACGAAUUCACUAGGAUGAAACAAUUUGGAGAAGAUUAGAUCGGAAGAGCACACGU .
4.4

Reported Kd, binder target 1 U3C,C7U (mixed) RNA 1: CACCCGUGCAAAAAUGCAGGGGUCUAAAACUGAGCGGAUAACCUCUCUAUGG RNA 2: GGGAAUGGAUCCACAUCUACGAAUUCGUACCAUAGAGAGGUUAUUCGCCCACCGAGAUCGGAAGAGCACACGU : ____
19.6

# Kd lookup, item target 1 insU 3' of 9,insA 3' of 7 (mixed) RNA 1: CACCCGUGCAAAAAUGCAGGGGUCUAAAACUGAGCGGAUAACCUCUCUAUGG RNA 2: GGGAAUGGAUCCACAUCUACGAAUUCGUACCAUAGAGAGGUUAUUCACGCUCACCGAGAUCGGAAGAGCACACGU
9.5

Quick check: Kd of target 1 MT 5'PFS AAU 3'PFS AAU (mixed) RNA 1: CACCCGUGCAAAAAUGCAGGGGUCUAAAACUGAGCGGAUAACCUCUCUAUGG RNA 2: GGGAAUGGAUCCACAUCUACGAAUUCAAUCCAUAGAGAGGUUAUCCGCUCAAAUAGAUCGGAAGAGCACACGU ?
38

Which Kd reading was recorded for the binder target 2 MT 5'PFS GCG 3'PFS AAU (mixed) RNA 1: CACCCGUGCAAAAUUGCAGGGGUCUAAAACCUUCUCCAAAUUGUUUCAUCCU RNA 2: GGGAAUGGAUCCACAUCUACGAAUUCGCGAGGAUGAAACAAUUUGGAGAAGAAUAGAUCGGAAGAGCACACGU ?
8.4
